- SYSTEM_NAME: T1, Polyhistidine-tagged recombinant human GFAP expressed from E. coli (human, UniProt P14136 1-432)
- T1 construct: also called His-tagged GFAP; not shown: polyhistidine tag
- TEST_SUMMARY: BLI (Octet QKe); His-tagged GFAP on anti-Penta-HIS sensor, antibody in solution
MEASUREMENT_TYPE: kon (M⁻¹ s⁻¹)
Just the number please, in M⁻¹ s⁻¹, no unit attached.

Output measured kon for this item: GFAP-11 (antibody, V domains shown, also called mouse anti-GFAP antibody GFAP-11) VH: QIQLVQSGPELKKPGETVKISCKASGYTFTNYGMNWVKQAPGEGLKWMGWINTNIGEPTYAEEFKGRFAFSLEASASTAYLQINNLKNEDTATYFCARWKNYGYFDYWGQGTTLTVSS VL: QIVLTQSPAIMSASLGERVTMTCTASSSVSSSYLHWYQQKPGSSPKLWIYSTSNLASGVPARFSGSGSGTSYSLTISSLEAEDAATYYCHQYHRSPYTFGGGTKLEIK
315000

Output measured kon for this item: GFAP-12 (antibody, V domains shown, also called mouse anti-GFAP antibody GFAP-12) VH: QVQLQQSGAELMKPGASVKISCKATGYTFSNYWIEWVKQRPGHGLEWIGEILPGSGSTNYNEKFKGKATFTADTSSNTAYMQLSSLTSEDSAVYYCAIYYGNYAGAMDYWGQGTSVTVSS VL: DIQMTQSPASLSASVGETVTITCRASENIYSYLAWYQQKQGKSPQLLVYNAKTLAEGVPSRFSGSGSGTQFSLKINSLQPEDFGSYYCQLHYGTPYTFGSGTKLEIK
18000

Output measured kon for this item: GFAP-6 (antibody, V domains shown, also called mouse anti-GFAP antibody GFAP-6; HRP-labeled anti-GFAP antibody) VH: EVQLQQSGAEFVKPGASVKLSCTASGFNIKDTDMHWVRQRPEQGLESIGLIDPAIGNTKYDPKFQGKATITADTSSNAAYLQLSSLTSEDTAVYYCARSDRYLAWFAYWGQGTLVTVSA VL: DIVMTQSPATLSVTPGDRVSLSCRASQSISDFLHWYQQKSHGSPRLLIKYSSQSISGIPSRFSGSGSGSDFTLSINSVEPEDVGVYYCQNGHTFPYTFGGGTKLEIK
116000

Output measured kon for this item: GFAP-15 (antibody, V domains shown, also called mouse anti-GFAP antibody GFAP-15) VH: DVQLVESGGGLLEPGGSRKLSCAASGFTFSSFGMHWVRQAPEKGLEWVAYISSGSRTIFYADTVKGRFTISRDNPKNTLFLQMTSLRSGDTAMYYCVRGGYGSSFDYWGQGTTLTVSS VL: DVVMTQTPLSLPVSLGDQASISCRSSQSLVYSNGNIYLHWYLQKPGQSPKLLIYKVSNRFSGVPDRFSGSGSGTDFTLKISRVEAEDLGVYFCSQSTHVPYTFGGGTKLEIK
1.15e+06
